Origin of the recorded values: ChEMBL document CHEMBL3627605

molecular target: Beta-2 adrenergic receptor (Cavia porcellus, UniProt Q8K4Z4); assay: Agonist activity at beta2 adrenoceptor in guinea pig trachea assessed as inhibition of histamine-induced contraction
Sequence (Q8K4Z4 whole entry): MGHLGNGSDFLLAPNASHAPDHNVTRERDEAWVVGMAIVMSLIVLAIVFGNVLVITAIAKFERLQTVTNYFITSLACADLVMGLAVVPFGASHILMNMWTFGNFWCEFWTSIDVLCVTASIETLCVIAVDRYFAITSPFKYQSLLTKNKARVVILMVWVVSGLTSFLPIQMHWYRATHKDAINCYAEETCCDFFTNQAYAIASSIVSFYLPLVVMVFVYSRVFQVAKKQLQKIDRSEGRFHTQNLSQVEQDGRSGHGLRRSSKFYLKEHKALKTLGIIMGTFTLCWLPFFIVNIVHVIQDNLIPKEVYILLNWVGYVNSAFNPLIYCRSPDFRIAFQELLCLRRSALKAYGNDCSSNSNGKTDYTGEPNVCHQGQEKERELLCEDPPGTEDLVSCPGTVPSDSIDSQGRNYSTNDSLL
measuredMetric: pEC50
Friendly reminder that pEC50 comes from taking -log10 of the concentration in mol/L.

query: // returns reported pEC50 for input OCc1cc(C(O)CNCCCCCCOCCCCc2ccccc2)ccc1O (configuration not stated) [SALMETEROL]
result: 8.57

query: // returns reported pEC50 for input `O=c1ccc2c([C@@H](O)CNCCc3ccc(CCN4CCC(Cn5cnc([C@](O)(c6ccccc6)C6CCCCC6)n5)CC4)cc3)ccc(O)c2[nH]1`
result: 7.89

====

Exercise: for every item that follows, state its recorded microsomal CLint.
test: Drug metabolism in human liver microsomes assessed as glucuronidation in absence of NADPH and presence of microsomal activator Brij58, UDPGA; assay type: ADME; details: read-out: Drug metabolism
Please state the figure in µL/min/mg; there is no need to write the unit.

query: // returns reported microsomal CLint for input `O=c1ccc2c([C@@H](O)CNCCc3ccc(CCN4CCC(Cn5cnc([C@](O)(c6ccccc6)C6CCCCC6)n5)CC4)cc3)ccc(O)c2[nH]1`
result: 9

query: // returns reported microsomal CLint for input O=c1ccc2c([C@@H](O)CNCCCCCCCCCN3CCC(Cn4cnc(C(O)(c5ccccc5)C5CCCCC5)n4)CC3)ccc(O)c2[nH]1 (some centres not stated)
result: 3.2

query: // returns reported microsomal CLint for input `O=c1ccc2c([C@@H](O)CNCCCCCCCCCN3CCC(Cn4cnc([C@](O)(c5ccccc5)C5CCCCC5)n4)CC3)ccc(O)c2[nH]1`
result: 4

query: // returns reported microsomal CLint for input `O=C(Nc1ccccc1-c1ccc(O)c(Cl)c1)OC1CCN(CCCCCCCCCNC[C@H](O)c2ccc(O)c3[nH]c(=O)ccc23)CC1`
result: 24
